Read-out: urokinase plasminogen activator (uPA), PLAU (gene 5328)
test-name: BSK_BE3C_uPA: BioMAP Diversity Plus: BE3C Assay for urokinase plasminogen activator (uPA) Biomarker Activity (AID 2283038)
test-parameters: primary human bronchial epithelial cells; actives raise or lower the signal
The source made the active and inactive calls. How the source made its calls: active means hit-call score of the fitted dose curve at least 0.9, where 1 is the maximum; inactive means score below 0.9.
A correct response names exactly one class from YES = active, NO = inactive

Solved cases below.
molecule: CN(C)C(=O)Nc1cccc(C(F)(F)F)c1
category-label: NO
//
molecule: CCOC(=O)CC(SP(=O)(OC)OC)C(=O)OCC (configuration not stated)
category-label: NO
//
molecule: C#CCC1=C(C)C(OC(=O)C2C(C=C(C)C)C2(C)C)CC1=O (configuration not stated)
category-label: NO

Q: Field: outcome | Entry: COP(=O)(OC)OC(Br)C(Cl)(Cl)Br (configuration not stated)
Result: YES

Q: Field: outcome | Entry: `CC(C)[C@H](C(=O)O[C@H](C#N)c1cccc(Oc2ccccc2)c1)c1ccc(Cl)cc1`
Result: NO

Q: Field: outcome | Entry: `Cc1ccn2nc(S(=O)(=O)Nc3c(F)cccc3F)nc2n1`
Result: NO

Q: Field: outcome | Entry: CC(C)=CC1C(C(=O)OCN2C(=O)C3=C(CCCC3)C2=O)C1(C)C (configuration not stated)
Result: NO

Q: Field: outcome | Entry: `COc1cccc(C(=O)NN(C(=O)c2cc(C)cc(C)c2)C(C)(C)C)c1C`
Result: NO

Q: Field: outcome | Entry: `CCOP(=S)(OCC)Oc1ccc2c(C)c(Cl)c(=O)oc2c1`
Result: NO

Q: Field: outcome | Entry: `CCCSP(=O)(OCC)SCCC`
Result: NO

Q: Field: outcome | Entry: CC(C1CC1)C(O)(Cn1cncn1)c1ccc(Cl)cc1 (configuration not stated)
Result: NO

Q: Field: outcome | Entry: `CCCCSP(=O)(SCCCC)SCCCC`
Result: NO

* * *

test-name: BSK_3C_Proliferation: Cell Proliferation Assessment in the BioMAP Diversity Plus: 3C Assay (AID 2283006)
test-parameters: primary human endothelial cells (HUVEC)
Active and inactive are the calls of the source. How the source made its calls: active means hit-call score of the fitted dose curve at least 0.9, where 1 is the maximum; inactive means score below 0.9.
A correct response names exactly one class from active, inactive

Solved cases below.
compound: CC(=NC#N)N(C)Cc1ccc(Cl)nc1
category-label: inactive

compound: CCOP(=O)(SC(C)CC)N1CCSC1=O (centres undefined)
category-label: inactive

compound: CCOP(=S)(OCC)SCCSCC
category-label: inactive

Next up:
Q: Field: outcome | Entry: `CCc1cccc(CC)c1N(COC)C(=O)CCl`
Result: active

* * *

assayed-target: Cellular tumor antigen p53 (Homo sapiens) (UniProt P04637)
Sequence (P04637 whole entry, looked up): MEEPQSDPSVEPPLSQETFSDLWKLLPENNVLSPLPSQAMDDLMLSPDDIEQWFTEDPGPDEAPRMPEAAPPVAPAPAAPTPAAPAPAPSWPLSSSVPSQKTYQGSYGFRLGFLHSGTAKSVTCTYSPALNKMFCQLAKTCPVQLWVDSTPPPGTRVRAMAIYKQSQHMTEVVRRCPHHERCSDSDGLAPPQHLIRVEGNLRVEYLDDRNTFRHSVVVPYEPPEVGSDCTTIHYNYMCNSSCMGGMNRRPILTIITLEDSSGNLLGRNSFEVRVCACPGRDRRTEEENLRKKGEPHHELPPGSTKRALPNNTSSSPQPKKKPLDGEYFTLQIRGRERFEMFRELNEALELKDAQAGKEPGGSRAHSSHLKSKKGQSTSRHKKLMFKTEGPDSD
test-name: TOX21_p53_BLA_p2_ratio: Tox21 HCT-116 p53 Agonism Beta-lactamase Assay, Ratio, Phase 2 (AID 2283592)
Protocol: TOX21_p53_BLA_p2 is a cell-based, single-readout assay that uses HCT116, a human intestinal cell line, […] in a 1536-well plate.TOX21_p53_BLA_p2_ratio is an assay readout measuring reporter gene via receptor activity and designed using inducible reporter (beta lactamase induction) detected with GAL4 b-lactamase reporter gene. […] This assay endpoint, TOX21_p53_BLA_p2_ratio, was analyzed in the positive analysis fitting direction relative to DMSO as the negative control and baseline of activity. […]
Results filed as inconclusive are left out. Calls of active or inactive are those of the source. The calls were made as follows: active = hit-call score of the fitted dose curve at least 0.9, where 1 is the maximum; inconclusive = response in the unintended direction; inactive = score below 0.9.
A correct response names exactly one class from 1.0 (active), 0.0 (inactive)

Solved cases below.
compound: CSc1nnc(C(C)(C)C)c(=O)n1N
category-label: 0.0

compound: C#CC(C)(C)NC(=O)c1cc(Cl)cc(Cl)c1
category-label: 0.0

compound: COc1cccc(C(=O)NN(C(=O)c2cc(C)cc(C)c2)C(C)(C)C)c1C
category-label: 0.0

compound: C[Si](Cn1cncn1)(c1ccc(F)cc1)c1ccc(F)cc1
category-label: 0.0

Q: Field: outcome | Entry: `CN1COCN(Cc2cnc(Cl)s2)C1=N[N+](=O)[O-]`
Result: 0.0

Q: Field: outcome | Entry: `CC[C@H](C)[C@H]1O[C@]2(C=C[C@@H]1C)C[C@@H]1C[C@@H](C/C=C(\C)[C@@H](O[C@H]3C[C@H](OC)[C@@H](O[C@H]4C[C@H](OC)[C@@H](NC)[C@H](C)O4)[C@H](C)O3)[C@@H](C)/C=C/C=C3\CO[C@@H]4[C@H](O)C(C)=C[C@@H](C(=O)O1)[C@]34O)O2`
Result: 1.0

Q: Field: outcome | Entry: `CCOP(=S)(OCC)Oc1cc(C)nc(C(C)C)n1`
Result: 0.0

Q: Field: outcome | Entry: CC(C)=CC1C(C(=O)OCN2C(=O)C3=C(CCCC3)C2=O)C1(C)C (stereo unspecified)
Result: 0.0

Q: Field: outcome | Entry: COP(=O)(OC)C(O)C(Cl)(Cl)Cl (stereo unspecified)
Result: 0.0

Q: Field: outcome | Entry: `COP(=O)(OC)SCn1c(=O)oc2cc(Cl)cnc21`
Result: 0.0

Q: Field: outcome | Entry: `CC(C)[C@H](C(=O)O[C@H](C#N)c1cccc(Oc2ccccc2)c1)c1ccc(Cl)cc1`
Result: 0.0

Q: Field: outcome | Entry: CCOP(=O)(NC(C)C)Oc1ccc(SC)c(C)c1 (stereo unspecified)
Result: 0.0

Q: Field: outcome | Entry: CCCSP(=O)(OCC)Oc1ccc(Br)cc1Cl (stereo unspecified)
Result: 0.0
